Attribution: ChEMBL document CHEMBL4190294

- System: LNCaP
- assayProcedure: Cytotoxicity against human LNCAP cells assessed as reduction in cell viability after 72 hrs by MTT assay
- Format: functional, cell-based
assayMetric: IC50 (µM)
Give bare numbers, in µM.

COc1ccc2nc3c(cc2c1)Cn1c-3nc2ccccc21 = 24.7
Brc1cccc2cc3c(nc12)-c1nc2ccccc2n1C3 = 8.4
c1ccc2nc3c(cc2c1)Cn1c-3nc2ccccc21 = 11.3
Cc1ccc2nc3c(cc2c1)Cn1c-3nc2ccccc21 = 62.5
COc1cccc2cc3c(nc12)-c1nc2ccccc2n1C3 = 20

# per-item lookup of IC50; items listed below
1. Cc1ccc2cc3c(nc2c1)-c1nc2ccccc2n1C3
2. Clc1cccc2cc3c(nc12)-c1nc2ccccc2n1C3
3. Cc1cccc2cc3c(nc12)-c1nc2ccccc2n1C3
4. COc1ccc2cc3c(nc2c1)-c1nc2ccccc2n1C3

# output
1: 39; 2: 24; 3: 23.8; 4: 25
